system: SF-268; assay: NCI tumour cell line growth inhibition, 48 h
Calls of active or inactive are those of the source. Cut-off read from the data, not from the text of the source: active = GI50 up to about 1.1 µM and inactive = higher.

- molecule: "[O-][n+]1c2cc(CBr)c(CBr)cc2[n+]([O-])c2c(O)cccc21"
  GI50: "2.84 µM (inactive)"
- molecule: "CCOC(=O)C(NC(=O)CC)(Nc1ccccc1F)C(F)(F)F (stereo unspecified)"
  GI50: "> 100 µM (inactive)"
- molecule: "NC(=O)C(N)Cc1ccc(O)cn1 (stereo unspecified)"
  GI50: "> 100 µM (inactive)"
- molecule: "[N-]=[N+]=NC1=C(C(=O)c2ccccc2)C(=O)c2cccc3cccc1c23"
  GI50: "17.1 µM (inactive)"
- molecule: "O=[As](O)(O)c1ccc(NCc2ccccc2)cc1"
  GI50: "> 100 µM (inactive)"
- molecule: "CN(C)/C=N/CCN1CCOCC1"
  GI50: "> 100 µM (inactive)"
- molecule: "CCOC(=O)C(Cc1cccn1C(=O)OC(C)(C)C)[N+](=O)[O-] (stereo unspecified)"
  GI50: "33.9 µM (inactive)"
- molecule: "Cc1cc(C)c2c(c1)C/C(=C\\c1ccccc1C(=O)O)C2=O"
  GI50: "> 100 µM (inactive)"
- molecule: "O=[N+]([O-])c1ccc(C2CC(c3ccccc3Cl)=Nc3ccccc3S2)cc1 (stereo unspecified)"
  GI50: "4.15 µM (inactive)"
- molecule: "NNc1nc2ccccc2c(=O)n1NC(=O)C(=O)Nc1cccc(C(F)(F)F)c1"
  GI50: "> 100 µM (inactive)"
- molecule: "CCCCOc1ccc(S(=O)(=O)/N=C(\\NN)Nc2ccc(Cl)cc2)cc1"
  GI50: "17.4 µM (inactive)"

Reference source for all entries: ChEMBL document CHEMBL1201862
